meta.source: patent US20090130676A1

target: T1, CDC28 (Saccharomyces cerevisiae (strain ATCC …, UniProt P00546 1-298)); assay: yeast interaction trap mating assay, lacZ reporter on Xgal
T1 construct: bait construct not described
T1 sequence (P00546 whole entry): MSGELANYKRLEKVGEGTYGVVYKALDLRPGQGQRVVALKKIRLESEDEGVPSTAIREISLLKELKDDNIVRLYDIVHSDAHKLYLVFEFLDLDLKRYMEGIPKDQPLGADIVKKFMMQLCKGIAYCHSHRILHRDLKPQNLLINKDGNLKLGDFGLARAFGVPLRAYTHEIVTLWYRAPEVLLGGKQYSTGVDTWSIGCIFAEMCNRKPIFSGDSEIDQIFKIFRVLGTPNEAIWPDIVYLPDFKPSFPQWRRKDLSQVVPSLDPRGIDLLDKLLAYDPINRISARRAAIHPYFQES
property: binding result

1. pep13 (FIG. 4B numbering), thioredoxin prey fusion (designed binder, not shown: large carriers) MSDKIIHLTDDSFDTDVLKADGAILVDFWAEWCGPPVCCMMYGHRTAPHSVFNVDGPCKMIAPILDEIADEYQGKLTVAKLNIDQNPGTAPKYGIRGIPTLLLFKNGEVAATKVGALSKGQLKEFLDANLA ... no binding
2. pep9 (FIG. 4B numbering), thioredoxin prey fusion (designed binder, not shown: large carriers) MSDKIIHLTDDSFDTDVLKADGAILVDFWAEWCGPQQRFVFSPSWFTCAGTSDFWGPEPLFDWTRDGPCKMIAPILDEIADEYQGKLTVAKLNIDQNPGTAPKYGIRGIPTLLLFKNGEVAATKVGALSKGQLKEFLDANLA ... no binding
3. pep7 (FIG. 4B numbering), thioredoxin prey fusion (designed binder, not shown: large carriers) MSDKIIHLTDDSFDTDVLKADGAILVDFWAEWCGPQLYAGCYLGVVIASSLSIRVGPCKMIAPILDEIADEYQGKLTVAKLNIDQNPGTAPKYGIRGIPTLLLFKNGEVAATKVGALSKGQLKEFLDANLA ... no binding
